Tested on: KM12 colon
Test: NCI tumour cell line growth inhibition, 48 h
The entries below come with measured GI50 values attached.
Test readout: GI50

> print(dat)
                                  structure  test.readout  value.observed
1  COc1ccc(-c2cc(C(=O)N=Nc3c(O)[nH]c4ccccc34)c3ccccc3n2)cc1          GI50         11.1 µM
2  COc1ccc(-c2cc(C(=O)N=Nc3c(O)[nH]c4ccc(Cl)cc34)c3ccccc3n2)cc1          GI50         21.6 µM
3  Clc1ccc(-c2nc3ccc(-c4nnc(SCc5ccccc5)o4)cc3[nH]2)cc1          GI50         17.6 µM
4  Nc1cccnc1/C=N/NC(=S)NCCNC(=O)c1ccc(-n2nc(-c3ccccc3O)nc2-c2ccccc2O)cc1          GI50         0.48 µM
